- experimental.protocol: Metabolic stability in human liver microsomes
- Format: in vitro ADME
- condition.notes: read-out: CLint(mic)
- Description: Drug-like Properties: Concepts, Structure Design and Methods: from ADME to Toxicity Optimization. […] Screen. […] The supernatants were collected, and detected the substrate by HPLC-MS/MS. […] The natural logarithms of the percentage of remaining amount at each time point was plotted against the incubation time, and the slope (−k) was calculated. […]
# reported microsomal CLint at 1 μM; entries follow

In the examples that follow, each entry is paired with its recorded microsomal CLint at 1 μM.
{"structure": "C[C@@H]1COCCN1c1cc(N2CC3CCC(C2)O3)nc2c(-c3cc[nH]n3)cnn12", "attribute.measured": "microsomal CLint at 1 μM", "reported.result": "11.7 µL/min/mg"}
{"structure": "c1cc(-c2ncc3c(N4CC5CCC(C4)O5)cc(N4CC5CCC(C4)O5)nn23)n[nH]1", "attribute.measured": "microsomal CLint at 1 μM", "reported.result": "< 9.6 µL/min/mg"}

Here is the next item to consider.
Sample C[C@@H]1COCCN1c1cc(N2CC3CCC(C2)O3)nc2c1cnn2-c1cc[nH]n1 ; microsomal CLint at 1 μM observed: < 9.6 µL/min/mg
